- System: Candida albicans
- runDescription: Broth microdilution of invasive fungal isolates (CLSI M27-A3/M38-A2)
- Assay type: cell-based
- conditionDescription: 251 isolates
metricName: Number of isolates inhibited at MIC ≤0.008 μg/mL
Kindly provide the number alone.

[ask] Look at this molecule and give its reported Number of isolates inhibited at MIC ≤0.008 μg/mL. "CC[C@H](C)C[C@H](C)CCCCCCCCC(=O)N[C@H]1C[C@@H](O)[C@@H](NCCN)NC(=O)[C@@H]2[C@@H](O)CCN2C(=O)[C@H]([C@H](O)CCN)NC(=O)[C@H]([C@H](O)[C@@H](O)c2ccc(O)cc2)NC(=O)[C@@H]2C[C@@H](O)CN2C(=O)[C@H]([C@@H](C)O)NC1=O"
[reply] 4

Value source: patent US20180256673A1
